For each record, write down the corresponding FOB (fold over binding).
# system: T1, Mouse TREM2, on cells (mouse, UniProt Q99NH8 19-227)
# T1 construct: whole, on cells; also called mouse TREM2 HEK
# T1 sequence (looked up): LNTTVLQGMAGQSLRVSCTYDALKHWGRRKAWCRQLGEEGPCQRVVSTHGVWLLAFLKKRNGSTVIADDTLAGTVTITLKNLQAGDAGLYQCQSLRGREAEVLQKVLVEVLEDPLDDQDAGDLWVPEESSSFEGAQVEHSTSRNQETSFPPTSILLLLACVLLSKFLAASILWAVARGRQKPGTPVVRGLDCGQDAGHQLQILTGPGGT
# test protocol: flow cytometry, 293F cells overexpressing mouse TREM2; further: test concentration or dose not given here
Quote the value and follow it with the unit of measurement.

binder	recorded measurement
42E8.H1 (antibody, V domains shown, Mouse hybridoma antibody, Ig2a, k; also called RS8.42E8.H1) VH: DVQLQESGPGLVKPSQSLSLTCTVTGYSITSDYAWNWIRQFPGNKLEWMGYINYSGRTIYNPSLKSRISITRDTSKNHFFLQLISVTTEDTATYYCARWNGNYGFAYWGQGTLVTVSA VL: DVVMTQNPLSLPVSLGDQASISCRSSQSLVHINGNTYLHWYLQKPGQSPKLLIYKVSNRFSGVPDRFSGSGSGTDFTLKISRVEAEDLGVYFCSQTTHALFTFGSGTKLEIK	3.5 fold

For 3D3.A1 (antibody, V domains shown, Mouse hybridoma antibody, Ig2a, k; also called RS8.3D3.A1) VH: EVQLQQSGPELVKPGASVKISCKTSGYTLSEYTMHWVIQSHGKSLEWIGGVIPNSGGTSYNQKFRDKASLTVDKSSSTAYLELRSLTSEDSAVYYCARGDDSYRRGYALDYWGQGTSVTVSS VL: DIVMSQSPSSLAVSVGEKVTMSCKSSQSLLYSSNQKSYLAWYQQKPGQSPKLLIYWASTRESGVPDRFRGSGSGTDFTLTISSVKAEDLAVYYCQQYFSYPPTFGGGTKLEIK , what is its reported FOB (fold over binding)? 8.4 fold
